system: Human recombinant MMP-2 (Homo sapiens)
Construct: made in house; host or cells: MMP-2-transfected p2AHT2 cells
assay_protocol: In vitro MMP inhibition, Ki determination (fluorogenic substrate II)
Assay type: biochemical
setup_conditions: value in parenthesis
Method: Several hydroxamates and salts thereof were analyzed in in vitro assays to determine their ability to inhibit the MMP cleavage of peptide substrates. Inhibition (Ki) and IC50 constants were calculated from the assayed hydroxamate-MMP interactions. […] The assays from which the Ki determinations were made were performed as follows. […] In the absence of MMP inhibitory activity, substrate II was cleaved at the Gly-Leu bond resulting in an increase of relative fluorescence. […]
recorded_metric: Ki (nM)

These recorded examples may help you get a feel for the data.
# Ki lookup, item Cc1cc(-c2cccc(CCCOc3ccc(S(=O)(=O)C4(C(=O)NO)CCOCC4)cc3)c2)ccc1Cl [Example 166] 8090

Which Ki value is on record for CN(C(=O)CCCOc1ccc(S(=O)(=O)C2(C(=O)NO)CCOCC2)cc1)c1ccc(OC(F)(F)F)cc1 [Example 249] ? 333

Name the recorded Ki for COCCN1CCC(C(=O)NO)(S(=O)(=O)c2ccc(OCCCc3nc(-c4ccc(C5(c6ccccc6)CC5)cc4)no3)cc2)CC1 [Example 185] . 116

a: O=C(NO)C1(S(=O)(=O)c2ccc(OCCCc3cccc(-c4ccc(Cl)c(Cl)c4)c3)cc2)CCOCC1 [Example 169]
b: O=C(NO)C1(S(=O)(=O)c2ccc(OCCCc3ccnc(-c4ccccc4)c3)cc2)CCOCC1 [Example 197]
Between the entries labelled a and b , which has a larger Ki value on record? Provide the label of your selected option as the answer. a
(a: 5360 nM, b: 30.7 nM)

P: O=C(NO)C1(S(=O)(=O)c2ccc(OCCCc3cccc(-c4ccccc4F)c3)cc2)CCOCC1 [Example 163]
Q: O=C(NO)C1(S(=O)(=O)c2ccc(OCCCc3nc(-c4ccc(OC(F)(F)F)cc4)no3)cc2)CCN(Cc2ccccc2)CC1 [Example 93]
Ki comparison. Which is larger, P or Q ? Write down the label attached to your selection. P
(P: 1010 nM, Q: 676 nM)

I: COCCN1CCC(C(=O)NO)(S(=O)(=O)c2ccc(OCCCc3nc(-c4ccccc4OC(F)(F)F)no3)cc2)CC1 [Example 152]
II: CC(C)c1cccc(NC(=O)CCCOc2ccc(S(=O)(=O)C3(C(=O)NO)CCOCC3)cc2)c1 [Example 182]
Consider I and II . Which of these has its Ki at a higher number? Please respond with the label that marks your chosen entry. I

A: O=C(NO)C1(S(=O)(=O)c2ccc(OCCOc3cccc(-c4ccccc4)c3)cc2)CCOCC1 [Example 157]
B: O=C(NO)C1(S(=O)(=O)c2ccc(OCCCc3cccc(-c4cccc(F)c4)c3)cc2)CCOCC1 [Example 161]
C: CC(C)C(=O)c1cccc(CCCOc2ccc(S(=O)(=O)C3(C(=O)NO)CCOCC3)cc2)c1 [Example 95]
D: O=C(NO)C1(S(=O)(=O)c2ccc(OCCc3cccc(-c4cc(Cl)cc(Cl)c4)c3)cc2)CCOCC1 [Example 126]
E: O=C(NO)C1(S(=O)(=O)c2ccc(OCCc3cccc(-c4cccnc4)c3)cc2)CCOCC1 [Example 125]
Sort these compounds on Ki so the largest reading comes first. Write out the labels following the order that was asked for. D, B, A, C, E
(D: 6360 nM, B: 1760 nM, A: 419 nM, C: 149 nM, E: 51.3 nM)

###

system: Human recombinant MMP-14 (Homo sapiens)
Construct: The catalytic domain enzyme was expressed in E. coli inclusion bodies, solubilized in urea; made in house
assay_protocol: In vitro MMP inhibition, IC50 determination (fluorogenic substrate I)
Format: biochemical
setup_conditions: value outside parentheses
Description: Several hydroxamates and salts thereof were analyzed in in vitro assays to determine their ability to inhibit the MMP cleavage of peptide substrates. Inhibition (Ki) and IC50 constants were calculated from the assayed hydroxamate-MMP interactions. […] The assays from which the IC50 determinations were made were performed as follows. […] The assayed hydroxamate samples were, incubated in Microfluorrm White Plates (Dynatech, Chantilly, VA) and analyzed on a Perkin Elmer L550 plate reader (Norwalk, Conn.). […]
pIC50: −log10 of the molar value.
recorded_metric: pIC50

a: O=C(NO)C1(S(=O)(=O)c2ccc(OCCOCc3ccncc3)cc2)CCOCC1
b: O=C(NO)C1(S(=O)(=O)c2ccc(OCCOCc3cccc([N+](=O)[O-])c3)cc2)CCOCC1
Which one would you say has the larger pIC50 value: a , or b ? Give the label under which the chosen entry appears. b
(b: 5.78, a: 5.03)

###

system: Human recombinant MMP-13 (Homo sapiens, UniProt P45452)
Construct: made in house; host or cells: baculovirus / insect cells
assay_protocol: In vitro MMP inhibition, IC50 determination (fluorogenic substrate I)
Type: biochemical
setup_conditions: value outside parentheses (Ki in parenthesis)
recorded_metric: IC50 (nM)

Examples from the recorded data:
Looking for the measured IC50 of `COc1cc(COCCCOc2ccc(S(=O)(=O)C3(C(=O)NO)CCOCC3)cc2)cc(OC)c1` , can you help? 3

Which IC50 is listed for COc1ccc(C(C)(O)CCCCOc2ccc(S(=O)(=O)C3(C(=O)NO)CCOCC3)cc2)cc1 (centres unmarked) ? 1.8

1: CC1CCCCC1COc1ccc(S(=O)(=O)C2(C(=O)NO)CCOCC2)cc1 (centres unmarked)
2: COc1ccc(S(=O)(=O)NCCCOc2ccc(S(=O)(=O)C3(C(=O)NO)CCOCC3)cc2)cc1
3: CC(C)(C)c1ccc(C(=O)CCCCOc2ccc(S(=O)(=O)C3(C(=O)NO)CCOCC3)cc2)cc1
Descending sort on IC50 required. Reply: labels, ordered per the request. 2, 1, 3

a: O=C(NO)C1(S(=O)(=O)c2ccc(OCCCCCN3CCCc4ccccc43)cc2)CCOCC1
b: Cn1cccc1C(=O)NCCCOc1ccc(S(=O)(=O)C2(C(=O)NO)CCOCC2)cc1
// which entry reports the smaller IC50, a or b ? Answer = label. b

###

system: Human recombinant MMP-2 (Homo sapiens)
Construct: made in house; host or cells: MMP-2-transfected p2AHT2 cells
Sequence (P08253 110-660): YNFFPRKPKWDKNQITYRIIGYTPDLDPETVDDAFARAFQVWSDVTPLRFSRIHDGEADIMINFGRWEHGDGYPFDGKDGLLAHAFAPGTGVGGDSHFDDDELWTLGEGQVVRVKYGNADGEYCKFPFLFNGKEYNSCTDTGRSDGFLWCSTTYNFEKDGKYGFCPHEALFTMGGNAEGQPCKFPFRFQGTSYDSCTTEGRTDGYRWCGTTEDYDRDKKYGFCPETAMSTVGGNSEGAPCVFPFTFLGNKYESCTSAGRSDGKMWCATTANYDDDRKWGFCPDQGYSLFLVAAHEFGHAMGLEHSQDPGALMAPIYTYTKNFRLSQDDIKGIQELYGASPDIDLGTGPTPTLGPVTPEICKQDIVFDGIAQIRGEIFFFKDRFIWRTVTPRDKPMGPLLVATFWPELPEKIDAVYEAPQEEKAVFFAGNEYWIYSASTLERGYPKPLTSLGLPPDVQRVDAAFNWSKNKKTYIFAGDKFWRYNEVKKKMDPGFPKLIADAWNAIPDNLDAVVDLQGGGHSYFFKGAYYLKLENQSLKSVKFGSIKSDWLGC
assay_protocol: In vitro MMP inhibition, Ki determination (fluorogenic substrate II)
Format: biochemical
setup_conditions: value in parentheses
recorded_metric: Ki (nM)

Example results:
Fill in the blank: the reported Ki of O=C(NO)C1(S(=O)(=O)c2ccc(OCCc3cccnc3)cc2)CCOCC1 [Example 557] is ____. 6.46

Tell me the measured Ki of O=C(NO)C1(S(=O)(=O)c2ccc(OCCCc3cccc(-c4coc5ccccc45)c3)cc2)CCOCC1 [Example 634] , please. 983

I: O=C(NO)C1(S(=O)(=O)c2ccc(OCCCc3nc(-c4ccccc4)no3)cc2)CCOCC1 [Example 584]
II: O=C(NO)C1(S(=O)(=O)c2ccc(OCCCc3cccc(-c4ccc(O)cc4)c3)cc2)CCOCC1 [Example 529]
Between I and II , which one shows the larger Ki value? Pick one and reply with its label. II

1: O=C(NO)C1(S(=O)(=O)c2ccc(OCCCc3cccc(-c4cc5ccccc5s4)c3)cc2)CCOCC1 [Example 633]
2: COCCN1CCC(C(=O)NO)(S(=O)(=O)c2ccc(OCCc3ccc(-c4ccc(C#N)cc4)cc3)cc2)CC1 [Example 543]
Kindly compare 1 with 2 and tell me which has the lower Ki figure. Respond with the label that goes with your answer. 2

a: O=C(NO)C1(S(=O)(=O)c2ccc(OCCCc3cncc(-c4ccc(F)cc4)c3)cc2)CCOCC1 [Example 523]
b: O=C(NO)C1(S(=O)(=O)c2ccc(OCCOc3cncnc3)cc2)CCOCC1 [Example 554]
Form: Entry with minimum Ki (choose one): a / b Choose, then provide that item's label. b
(b: 61.3 nM, a: 197 nM)
